- TARGET: T1, human GIP receptor (human) (UniProt P48546)
- T1 sequence (looked up): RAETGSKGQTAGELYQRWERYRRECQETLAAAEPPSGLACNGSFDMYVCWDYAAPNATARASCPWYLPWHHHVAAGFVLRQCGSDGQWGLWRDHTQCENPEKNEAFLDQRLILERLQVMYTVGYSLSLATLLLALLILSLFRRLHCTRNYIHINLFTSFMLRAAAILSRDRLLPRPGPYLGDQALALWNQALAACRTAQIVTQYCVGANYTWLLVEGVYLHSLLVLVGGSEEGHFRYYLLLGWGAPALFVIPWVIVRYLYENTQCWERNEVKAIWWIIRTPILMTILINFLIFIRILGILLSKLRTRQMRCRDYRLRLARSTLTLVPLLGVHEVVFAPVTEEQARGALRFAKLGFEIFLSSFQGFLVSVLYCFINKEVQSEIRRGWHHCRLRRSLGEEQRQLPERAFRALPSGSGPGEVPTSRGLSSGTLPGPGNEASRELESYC
- ASSAY PROCEDURE: cell-based or functional assay
Starred links: 1 amine or outer side, 2 acyl side, 3 side chain; linkers in the order of their positions; H or OH if unused. Non-standard residues stand in square brackets, D forms with d. Groups on a side chain read outwards from the residue. No end group written: not given here. *: point of attachment. C20 diacid = O=C(O)CCCCCCCCCCCCCCCCCCC(=O)*; αMePhe(2-F) = C[C@](N)(Cc1ccccc1F)C(=O)O; γGlu = O=C(O)[C@H](CCC(=O)[*:2])N[*:1]; αMeL = CC(C)C[C@](C)(N)C(=O)O; AEEA = NCCOCCOCC(=O)O; Aib = CC(C)(N)C(=O)O
Provide the recorded log10 of Relative cAMP EC50 for the entries that follow.
Hey, these are logged values: log10 of Relative cAMP EC50, nM being the unit before logging.

Incoming: Output log10 of Relative cAMP EC50 of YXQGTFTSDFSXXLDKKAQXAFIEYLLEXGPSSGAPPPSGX (synthetic construct; SITE 2: note = 2-Aminoisobutyric Acid; SITE 12: note = L-ornithine; SITE 13: note = alpha-methyl-leucine; SITE 17: note = Lysine is chemically modified through conjugation of the epsilon-amino group of the Lysine side chain with (2-[2-(2-Amino-ethoxy)-ethoxy]-acetyl)-(gamma-Glu)) [Example 279]
Outgoing: -0.98

Incoming: Output log10 of Relative cAMP EC50 of YXQGTFTSDXSQXLDXKAQXQFIEYLIAGGPSSGAPPPSGSEE (not fully specified; synthetic construct; SITE 2: note = 2-Aminoisobutyric Acid; SITE 10: note = 3-(4-Pyridyl)-L-alanine; SITE 13: note = alpha-methyl-leucine; SITE 16: note = L-ornithine; SITE 17: note = Lysine is chemically modified through conjugation of the epsilon-amino group of the Lysine side chain with (gamma-Gl)) [Example 1005]
Outgoing: -0.82

Incoming: Output log10 of Relative cAMP EC50 of Y[Aib]QGTFTSDYSI[αMeL]LDKK([AEEA-γGlu-C20 diacid])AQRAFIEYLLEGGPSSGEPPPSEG-NH2 (not fully specified) [Example 289]
Outgoing: -0.42

Incoming: Output log10 of Relative cAMP EC50 of YXQGTFTSDFSRXLDKKAQXAFIEYLLAGGPSSGAPPPSGS (synthetic construct; SITE 2: note = 2-Aminoisobutyric Acid; SITE 13: note = alpha-methyl-leucine; SITE 17: note = Lysine is chemically modified through conjugation of the epsilon-amino group of the Lysine side chain with (2-[2-(2-Amino-ethoxy)-ethoxy]-acetyl)-(gamma-Glu)-CO-(CH2) 18-CO2H; SITE 20: n) [Example 77]
Outgoing: -0.77

Incoming: Output log10 of Relative cAMP EC50 of YXQGTXTSDYSILLDKKAQXAFIEYLEEGGPSSGAPPPSGE (synthetic construct; SITE 2: note = 2-Aminoisobutyric Acid; SITE 6: note = alpha-methyl-2-fluoro-L-phenylalanine; SITE 17: note = Lysine is chemically modified through conjugation of the epsilon-amino group of the Lysine side chain with (gamma-Glu)2-CO-(CH2)16-CO2H; SITE 20: note = 2-Aminoisobutyric) [Example 435]
Outgoing: -1.62

Incoming: Output log10 of Relative cAMP EC50 of YXQGTXTSDXSILLDKKAQXAFIEYLEEGGPSSGAPPPEGTE (synthetic construct; SITE 2: note = 2-Aminoisobutyric Acid; SITE 6: note = alpha-methyl-2-fluoro-L-phenylalanine; SITE 10: note = 3-(4-Pyridyl)-L-alanine; SITE 17: note = Lysine is chemically modified through conjugation of the epsilon-amino group of the Lysine side chain with (gamma-Glu)2-CO-(CH2)1) [Example 659 (SEQ ID NO: 665)]
Outgoing: -1.17

Incoming: Output log10 of Relative cAMP EC50 of YXQGTFTSDFSXXLDKKAQXAFIEYLLAGGTSSGEPPPSGE (synthetic construct; SITE 2: note = 2-Aminoisobutyric Acid; SITE 12: note = L-ornithine; SITE 13: note = alpha-methyl-leucine; SITE 17: note = Lysine is chemically modified through conjugation of the epsilon-amino group of the Lysine side chain with (2-[2-(2-Amino-ethoxy)-ethoxy]-acetyl)-(gamma-Glu)) [Example 106]
Outgoing: -0.46

Incoming: Output log10 of Relative cAMP EC50 of YXQGTXTSDYSIXLDKKAQXAFIEYLEEGGPSSGAPPPS (synthetic construct; SITE 2: note = 2-Aminoisobutyric Acid; SITE 6: note = alpha-methyl-2-fluoro-L-phenylalanine; SITE 13: note = alpha-methyl-leucine; SITE 17: note = Lysine is chemically modified through conjugation of the epsilon-amino group of the Lysine side chain with (2-[2-(2-Amino-ethoxy)-et)) [Example 421]
Outgoing: -1.88

Incoming: Output log10 of Relative cAMP EC50 of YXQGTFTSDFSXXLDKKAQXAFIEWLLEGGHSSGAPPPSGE (synthetic construct; SITE 2: note = 2-Aminoisobutyric Acid; SITE 12: note = L-ornithine; SITE 13: note = alpha-methyl-leucine; SITE 17: note = Lysine is chemically modified through conjugation of the epsilon-amino group of the Lysine side chain with (2-[2-(2-Amino-ethoxy)-ethoxy]-acetyl)-(gamma-Glu)) [Example 122]
Outgoing: -0.72

Incoming: Output log10 of Relative cAMP EC50 of Y[Aib]QGTFTSDYSK[αMeL]LDKK([AEEA-γGlu-C20 diacid])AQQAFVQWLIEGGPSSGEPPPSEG-NH2 [Example 315]
Outgoing: -0.40

Incoming: Output log10 of Relative cAMP EC50 of YXQGTFTSDXSQXLDXKAQXAFIQXLIEXGPSSGEPPPSGGGE (not fully specified; non-natural residues, C18 diacid acylation, C-terminal amide; synthetic construct; SITE 2: note = 2-Aminoisobutyric Acid; SITE 10: note = 3-(4-Pyridyl)-L-alanine; SITE 13: note = alpha-methyl-leucine; SITE 16: note = L-ornithine; SITE 17: note = Lysine is chemically modified through conjugation of the epsilon-amino group of the Lysine side chain with D-Glutami) [Example 1131]
Outgoing: -1.33

Incoming: Output log10 of Relative cAMP EC50 of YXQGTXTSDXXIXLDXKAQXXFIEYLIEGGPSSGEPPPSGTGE (synthetic construct; SITE 2: note = 2-Aminoisobutyric Acid; SITE 6: note = alpha-methyl-2-fluoro-L-phenylalanine; SITE 10: note = 3-(4-Pyridyl)-L-alanine; SITE 11: note = alpha-methyl-L-serine; SITE 13: note = alpha-methyl-leucine; SITE 16: note = L-ornithine; SITE 17: note = Lysine is chemically mo) [Example 523]
Outgoing: -1.68

Incoming: Output log10 of Relative cAMP EC50 of YXQGTFTSDFSRXLDKKAQXAFIEYLIEGGESSGAPPPSGS (synthetic construct; SITE 2: note = 2-Aminoisobutyric Acid; SITE 13: note = alpha-methyl-leucine; SITE 17: note = Lysine is chemically modified through conjugation of the epsilon-amino group of the Lysine side chain with (2-[2-(2-Amino-ethoxy)-ethoxy]-acetyl)-(gamma-Glu)-CO-(CH2) 16-CO2H; SITE 20: n) [Example 794]
Outgoing: -0.33

Incoming: Output log10 of Relative cAMP EC50 of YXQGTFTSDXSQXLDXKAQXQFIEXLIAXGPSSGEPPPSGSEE (not fully specified; Aib, 4Pal, Orn, Me4Pal, αMeY; lipidated Lys; C-terminal amide; synthetic construct; SITE 2: note = 2-Aminoisobutyric Acid; SITE 10: note = 3-(4-Pyridyl)-L-alanine; SITE 13: note = alpha-methyl-leucine; SITE 16: note = L-ornithine; SITE 17: note = Lysine is chemically modified through conjugation of the epsilon-amino group of the Lysine side chain with D-Glutami) [Example 1106]
Outgoing: -1.51

Incoming: Output log10 of Relative cAMP EC50 of Y[Aib]QGT[αMePhe(2-F)]TSDYSILLDKQAAKEFIEYLIEGGPSSGAPPPSEG-NH2 (not fully specified (residue 20)) [Example 340]
Outgoing: -0.72

Incoming: Output log10 of Relative cAMP EC50 of YXQGTFTSDFSXXLDKKAQXAFIEYLLEAGPSSGHPPPSGH (synthetic construct; SITE 2: note = 2-Aminoisobutyric Acid; SITE 12: note = L-ornithine; SITE 13: note = alpha-methyl-leucine; SITE 17: note = Lysine is chemically modified through conjugation of the epsilon-amino group of the Lysine side chain with (2-[2-(2-Amino-ethoxy)-ethoxy]-acetyl)2-(gamma-Glu)) [Example 255]
Outgoing: -0.97

Incoming: Output log10 of Relative cAMP EC50 of YXQGTFTSDFSXXLDKKAQXAFIEYLLEGGPSSGEPPPSGS (synthetic construct; SITE 2: note = 2-Aminoisobutyric Acid; SITE 12: note = L-ornithine; SITE 13: note = alpha-methyl-leucine; SITE 17: note = Lysine is chemically modified through conjugation of the epsilon-amino group of the Lysine side chain with (2-[2-(2-Amino-ethoxy)-ethoxy]-acetyl)-(gamma-Glu)) [Example 131]
Outgoing: -0.38

Incoming: Output log10 of Relative cAMP EC50 of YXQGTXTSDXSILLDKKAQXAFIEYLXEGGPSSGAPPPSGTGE (synthetic construct; SITE 2: note = 2-Aminoisobutyric Acid; SITE 6: note = alpha-methyl-2-fluoro-L-phenylalanine; SITE 10: note = 3-(4-Pyridyl)-L-alanine; SITE 17: note = Lysine is chemically modified through conjugation of the epsilon-amino group of the Lysine side chain with (gamma-Glu)2-CO-(CH2)1) [Example 661 (SEQ ID NO: 667)]
Outgoing: -1.18

Incoming: Output log10 of Relative cAMP EC50 of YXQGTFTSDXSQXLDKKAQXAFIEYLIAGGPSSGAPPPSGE (synthetic construct; SITE 2: note = 2-Aminoisobutyric Acid; SITE 10: note = 3-(4-Pyridyl)-L-alanine; SITE 13: note = alpha-methyl-leucine; SITE 17: note = Lysine is chemically modified through conjugation of the epsilon-amino group of the Lysine side chain with (gamma-Glu)2-CO-(CH2)16-CO2H; SITE 20:) [Example 883]
Outgoing: -1.11

Incoming: Output log10 of Relative cAMP EC50 of YXQGTFTSDFSXXLDKKAQXAFIEYLLEGGPSSGAPPPGGE (synthetic construct; SITE 2: note = 2-Aminoisobutyric Acid; SITE 12: note = L-ornithine; SITE 13: note = alpha-methyl-leucine; SITE 17: note = Lysine is chemically modified through conjugation of the epsilon-amino group of the Lysine side chain with (2-[2-(2-Amino-ethoxy)-ethoxy]-acetyl)-(gamma-Glu)) [Example 63]
Outgoing: -0.59

Incoming: Output log10 of Relative cAMP EC50 of YXQGTFTSDXSXXLDXKAQXAFIEYLIAGGPSSGEPPPSGTE (Aib, 4Pal, Orn, αMeL, Me4Pal; (γGlu)2-C18 diacid on Lys; amide; synthetic construct; SITE 2: note = 2-Aminoisobutyric Acid; SITE 10: note = 3-(4-Pyridyl)-L-alanine; SITE 12: note = L-ornithine; SITE 13: note = alpha-methyl-leucine; SITE 16: note = L-ornithine; SITE 17: note = Lysine is chemically modified through conjugation of the epsilon-amino group of the Lys) [Example 984]
Outgoing: -0.63

Incoming: Output log10 of Relative cAMP EC50 of YXQGTFTSDFSKXLDKKAQXAFIEYLLAGGPSSGAPPPSEG (Aib, αMeL; acylated lysine; C-terminal amide; synthetic construct; SITE 2: note = 2-Aminoisobutyric Acid; SITE 13: note = alpha-methyl-leucine; SITE 17: note = Lysine is chemically modified through conjugation of the epsilon-amino group of the Lysine side chain with (2-[2-(2-Amino-ethoxy)-ethoxy]-acetyl)-(gamma-Glu)-CO-(CH2) 18-CO2H; SITE 20: n) [Example 10]
Outgoing: -0.65

Incoming: Output log10 of Relative cAMP EC50 of YXQGTFTSDFSXXLDKKAQXAFIEYLLEGGPSSGAPPPGGSG (synthetic construct; SITE 2: note = 2-Aminoisobutyric Acid; SITE 12: note = L-ornithine; SITE 13: note = alpha-methyl-leucine; SITE 17: note = Lysine is chemically modified through conjugation of the epsilon-amino group of the Lysine side chain with (2-[2-(2-Amino-ethoxy)-ethoxy]-acetyl)-(gamma-Glu)) [Example 64]
Outgoing: -0.51
